Target under test: HLA-A*68:02
Assay text: IEDB peptide-MHC binding, purified MHC/competitive/radioactivity; filed as Kd, often an IC50 or EC50 that approximates it; bounds were set here for any values at or beyond the usual limits of such assays
Run parameters: source organism: Variola virus
Parameter measured: Kd (nM)
Number only, in nM; omit the unit.

Request: Would you kindly share the measured Kd for `MILVPLITV` ?
Result: 0.278

###

Target under test: HLA-A*31:01
Assay text: IEDB peptide-MHC binding, purified MHC/competitive/fluorescence; filed as Kd, often an IC50 or EC50 that approximates it; bounds were set here for any values at or beyond the usual limits of such assays
Run parameters: source organism: Japanese encephalitis virus
Parameter measured: Kd (nM)
Number only, in nM; omit the unit.

Request: Would you kindly share the measured Kd for `LTYRHKVVK` ?
Result: 23.9

###

Target under test: HLA-B*51:01
Assay text: IEDB peptide-MHC binding, purified MHC/competitive/radioactivity; filed as Kd, often an IC50 or EC50 that approximates it; bounds were set here for any values at or beyond the usual limits of such assays
Run parameters: source organism: Vaccinia virus Copenhagen
pKd: −log10 of the molar value.
Parameter measured: pKd

Request: Would you kindly share the measured pKd for `ILDDNLYKV` ?
Result: ≤ 4.11

###

Target under test: HLA-B*40:13
Assay text: IEDB peptide-MHC binding, purified MHC/competitive/fluorescence; filed as Kd, often an IC50 or EC50 that approximates it; bounds were set here for any values at or beyond the usual limits of such assays
Run parameters: source organism: Bacillus anthracis str. A0488
Parameter measured: Kd (nM)
Number only, in nM; omit the unit.

Request: Would you kindly share the measured Kd for `RFFKHFMSL` ?
Result: 5.2

###

Target under test: HLA-A*31:01
Assay text: IEDB peptide-MHC binding, purified MHC/competitive/radioactivity; filed as Kd, often an IC50 or EC50 that approximates it; bounds were set here for any values at or beyond the usual limits of such assays
Run parameters: source organism: Mammarenavirus machupoense
pKd: −log10 of the molar value.
Parameter measured: pKd

Request: Would you kindly share the measured pKd for `DTNLITCNDH` ?
Result: ≤ 4.15

###

Target under test: HLA-A*02:50
Assay text: IEDB peptide-MHC binding, purified MHC/competitive/fluorescence; filed as Kd, often an IC50 or EC50 that approximates it; bounds were set here for any values at or beyond the usual limits of such assays
Run parameters: source organism: Yersinia bercovieri ATCC 43970
Parameter measured: Kd (nM)
Number only, in nM; omit the unit.

Request: Would you kindly share the measured Kd for `TLLCGAATA` ?
Result: 12

###

Target under test: HLA-B*44:02
Assay text: IEDB peptide-MHC binding, purified MHC/competitive/radioactivity; filed as Kd, often an IC50 or EC50 that approximates it; bounds were set here for any values at or beyond the usual limits of such assays
Run parameters: source organism: Dengue virus 2 Jamaica/1409/1983
Parameter measured: Kd
Don't forget the unit after the number, please.

Request: Item: `KELKCGSGIF` Test system: HLA-B*44:02 Read-out: Kd Value: ?
Result: 33.6 nM

###

Target under test: HLA-A*11:01
Assay text: IEDB peptide-MHC binding, purified MHC/direct/fluorescence; filed as Kd, often an IC50 or EC50 that approximates it; bounds were set here for any values at or beyond the usual limits of such assays
Run parameters: source organism: Lake Victoria marburgvirus - Popp
pKd: −log10 of the molar value.
Parameter measured: pKd

Request: Would you kindly share the measured pKd for `GELRKAICL` ?
Result: ≤ 4.70

Cited source for all entries: the Immune Epitope Database (IEDB)
